Molecular target: human Cystic Fibrosis Transmembrane Conductance Regulator (CFTR) harboring the ΔF508 mutation (Homo sapiens, UniProt P13569, DEL508-508)
Construct: expressed in transfected cells; host or cells: H441 carcinoma line (G418-selected)
Sequence (P13569 with tags, fused parts or gaps DEL508-508): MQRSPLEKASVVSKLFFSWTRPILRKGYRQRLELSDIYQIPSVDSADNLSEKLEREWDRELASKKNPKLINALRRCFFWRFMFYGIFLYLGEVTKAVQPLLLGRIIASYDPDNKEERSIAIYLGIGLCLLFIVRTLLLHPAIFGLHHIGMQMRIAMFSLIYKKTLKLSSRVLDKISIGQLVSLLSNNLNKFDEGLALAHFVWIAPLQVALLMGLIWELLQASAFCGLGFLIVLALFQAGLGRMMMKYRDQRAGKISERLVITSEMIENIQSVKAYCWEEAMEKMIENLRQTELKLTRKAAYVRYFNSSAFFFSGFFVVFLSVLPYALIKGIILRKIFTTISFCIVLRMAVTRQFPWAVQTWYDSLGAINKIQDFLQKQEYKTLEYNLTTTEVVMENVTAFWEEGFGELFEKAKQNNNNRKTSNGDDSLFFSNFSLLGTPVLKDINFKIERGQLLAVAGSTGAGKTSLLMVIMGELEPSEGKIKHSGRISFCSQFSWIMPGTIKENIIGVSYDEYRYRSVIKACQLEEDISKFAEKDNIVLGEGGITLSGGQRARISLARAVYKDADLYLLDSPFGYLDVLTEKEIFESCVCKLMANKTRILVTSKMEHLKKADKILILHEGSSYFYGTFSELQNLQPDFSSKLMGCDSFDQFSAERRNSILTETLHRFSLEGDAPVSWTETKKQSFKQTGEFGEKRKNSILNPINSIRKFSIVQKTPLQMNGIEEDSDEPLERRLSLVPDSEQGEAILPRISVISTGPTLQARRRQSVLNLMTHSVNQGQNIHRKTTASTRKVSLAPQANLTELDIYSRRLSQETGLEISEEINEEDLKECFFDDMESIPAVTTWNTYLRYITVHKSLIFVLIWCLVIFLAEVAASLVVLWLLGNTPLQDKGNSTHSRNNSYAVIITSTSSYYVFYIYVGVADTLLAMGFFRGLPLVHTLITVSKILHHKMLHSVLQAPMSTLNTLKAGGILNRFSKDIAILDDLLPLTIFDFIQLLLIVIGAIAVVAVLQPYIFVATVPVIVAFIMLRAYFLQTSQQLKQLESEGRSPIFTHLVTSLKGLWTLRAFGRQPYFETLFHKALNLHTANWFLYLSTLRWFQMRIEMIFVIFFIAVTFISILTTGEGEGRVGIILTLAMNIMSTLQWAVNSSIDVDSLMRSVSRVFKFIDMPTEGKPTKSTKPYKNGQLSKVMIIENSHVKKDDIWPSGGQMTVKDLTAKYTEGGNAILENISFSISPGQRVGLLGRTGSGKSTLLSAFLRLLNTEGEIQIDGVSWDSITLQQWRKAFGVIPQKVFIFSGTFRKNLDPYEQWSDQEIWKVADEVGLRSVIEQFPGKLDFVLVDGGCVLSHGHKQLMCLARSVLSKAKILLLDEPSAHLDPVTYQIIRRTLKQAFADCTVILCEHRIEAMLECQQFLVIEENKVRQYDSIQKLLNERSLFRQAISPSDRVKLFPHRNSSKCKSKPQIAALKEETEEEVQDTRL
Test: H441 cell ΔF508-CFTR-HRP cell surface assay (Emax and EC50)
Assay type: cell-based
Conditions: NCI-H441, NA = Not active
measuredParameter: Emax (%)
Return type: number; implicit unit %.

Completed entries (count: 3):
entrySmiles: O=C(N[C@@H](Cc1ccc2c(c1)OCO2)C(=O)O)c1ccc2ccccc2c1OCc1ccc(C(F)(F)F)cc1
unitString: %
reportedResult: 82.1

entrySmiles: CC(C)(C)C[C@H](NC(=O)c1ccc2cc(N)ccc2c1OCc1ccc(C(F)(F)F)cc1)C(=O)O
unitString: %
reportedResult: 46.6

entrySmiles: CC(C)(C)[C@@H](NC(=O)c1ccc2ccc(Cl)cc2c1OCc1ccc(OC(F)(F)F)cc1)C(=O)O
unitString: %
reportedResult: 99.1

Give a short answer stating reported Emax for CCC(C)(C)[C@@H](NC(=O)c1ccc2ccc(C)cc2c1OCc1ccc(OC(F)(F)F)cc1)C(=O)O .
127

---

Target: human Cystic Fibrosis Transmembrane Conductance Regulator (CFTR) harboring the ΔF508 mutation (Homo sapiens, UniProt P13569, DEL508-508)
Test: H441 cell ΔF508-CFTR-HRP cell surface assay (Emax and EC50)
Entries annotated with measured log10(EC50)
Please be aware that the numbers have been log10-transformed from EC50 in nM.

Completed entries (count: 5):
entrySmiles: CC(C)(C)[C@H](NC(=O)c1ccc2ccccc2c1OCc1ccncc1)C(=O)O
reportedResult: 3.49
//
entrySmiles: O=C(N[C@H](C(=O)O)C(c1ccccc1)c1ccccc1)c1ccc2ccccc2c1OCc1ccc(C(F)(F)F)cc1
reportedResult: 2.00
//
entrySmiles: CC(C)(C)[C@H](NC(=O)c1ccc2ccccc2c1OC[C@H]1CC[C@H](C(F)(F)F)CC1)C(=O)O
reportedResult: 3.46
//
entrySmiles: CC(C)(C)[C@H](NC(=O)c1ccc2ccc(-c3cscn3)cc2c1OCc1ccc(OC(F)(F)F)cc1)C(=O)O
reportedResult: 2.78
//
entrySmiles: Cc1ccc2ccc(C(=O)N[C@H](C(=O)O)C(C)(C)CF)c(OCC3CCCCC3)c2c1
reportedResult: 2.85

Give a short answer stating reported log10(EC50) for CC(C)(C)[C@H](NC(=O)c1ccc2ccc(Br)cc2c1OCc1ccc(OC(F)(F)F)cc1)C(=O)O .
2.00

Give a short answer stating reported log10(EC50) for CCC(C)(C)[C@H](NC(=O)c1ccc2ccc(Cl)cc2c1OCc1ccc(OC(F)(F)F)cc1)C(=O)O .
2.00

Give a short answer stating reported log10(EC50) for O=C(N[C@H](C(=O)O)C(c1ccccc1)c1ccccc1)c1ccc2ccccc2c1OCc1ccc(C(F)(F)F)cn1 .
4.06

Give a short answer stating reported log10(EC50) for CC(C)(C)[C@H](NC(=O)c1ccc2ccc(C(F)(F)F)cc2c1OCc1ccc(OC(F)(F)F)cc1)C(=O)O .
2.30

---

Target: human Cystic Fibrosis Transmembrane Conductance Regulator (CFTR) harboring the ΔF508 mutation (Homo sapiens, UniProt P13569, DEL508-508)
Assay: H441 cell ΔF508-CFTR-HRP cell surface assay (Emax and EC50)
measuredParameter: pEC50
// returns pEC50 (minus log10 of molar concentration), number only

Completed entries (count: 10):
molecule: CCC(C)(C)[C@H](NC(=O)c1ccc2c(F)cccc2c1OCc1ccc(C(F)(F)F)cc1)C(=O)O
pEC50: 6.22
--
molecule: CC(C)(C)[C@H](NC(=O)c1ccc2ccccc2c1OCc1ccc(Br)cc1)C(=O)O
pEC50: 5.46
--
molecule: CC(C)(SCC1CC1(F)F)[C@H](NC(=O)c1ccc2ccccc2c1OCc1ccc(SC(F)(F)F)cc1)C(=O)O (stereo partly drawn)
pEC50: 6.22
--
molecule: Cc1cc(COc2c(C(=O)N[C@H](C(=O)O)C(C)(C)C)ccc3ccccc23)no1
pEC50: 5.25
--
molecule: COc1ccc2ccc(C(=O)N[C@H](C(=O)O)C(C)(C)C)c(OCc3ccc(OC(F)(F)F)cc3)c2c1
pEC50: 6.22
--
molecule: O=C(N[C@H](C(=O)O)C12CCC(CC1)C2)c1ccc2ccccc2c1OCc1ccc(OC(F)(F)F)cc1
pEC50: 7.00
--
molecule: CC1(C(NC(=O)c2ccc3ccccc3c2OCc2ccc(S(F)(F)(F)(F)F)cc2)C(=O)O)CCCCC1 (stereo not drawn)
pEC50: 6.15
--
molecule: C[C@@H](OCc1ccccc1)C(NC(=O)c1ccc2ccccc2c1OCc1ccc(C(F)(F)F)cc1)C(=O)O (stereo partly drawn)
pEC50: 5.35
--
molecule: CC(C)(C)OC(=O)C[C@H](NC(=O)c1ccc2ccccc2c1OCc1ccc(C(F)(F)F)cc1)C(=O)O (stereo in doubt)
pEC50: 4.87
--
molecule: C#CC(C)(C)C(NC(=O)c1ccc2ccc(C)cc2c1OCc1ccc(C(F)(F)F)cc1)C(=O)O (stereo not drawn)
pEC50: 6.40

Give a short answer stating reported pEC50 for CC(C)(SC1CCCC1)[C@H](NC(=O)c1ccc2cc(F)ccc2c1OCc1ccc(SC(F)(F)F)cc1)C(=O)O .
6.30

Give a short answer stating reported pEC50 for CC1([C@H](NC(=O)c2ccc3ccc(C(F)(F)F)cc3c2OCc2ccc(C(F)(F)F)cc2)C(=O)O)CC1 .
6.15

Give a short answer stating reported pEC50 for CC1(C(NC(=O)c2ccc3ccccc3c2OCc2ccc(OC(F)(F)F)cc2)C(=O)O)CCCCC1 (stereo not drawn) .
6.15

Give a short answer stating reported pEC50 for CCCC(C)(CC)[C@H](NC(=O)c1ccc2ccc(Cl)cc2c1OCc1ccc(C(F)(F)F)cc1)C(=O)O (stereo partly drawn) .
7.00

Give a short answer stating reported pEC50 for CC(C)(c1ccccc1)[C@H](NC(=O)c1ccc2cc(F)ccc2c1OCC1CCC(F)(F)CC1)C(=O)O .
5.62
